Tested on: Wnt activity (Sp5-Luc reporter, SW480 colon carcinoma cells)
test.protocol: Screening assay for Wnt activity: Sp5-Luc reporter gene assay in SW480 cells
Assay type: cell-based
cond: Homo sapiens, 42 h incubation, luminescence
Please respond with reported pIC50 for every item in the list.
Reminder that pIC50 is minus the log10 of a molar concentration.

query: Under Wnt activity (Sp5-Luc reporter, SW480 colon carcinoma cells): pIC50 value of Fc1cccc(-c2nccc3[nH]c(-c4n[nH]c5ccc(C6CCNCC6)cc45)nc23)c1 ?
result: 5.63

query: Under Wnt activity (Sp5-Luc reporter, SW480 colon carcinoma cells): pIC50 value of Cc1ccc(-c2nccc3[nH]c(-c4n[nH]c5ccc(-c6cncc(NC(=O)CC(C)(C)C)c6)cc45)nc23)s1 ?
result: 7.90

query: Under Wnt activity (Sp5-Luc reporter, SW480 colon carcinoma cells): pIC50 value of O=C(Nc1cncc(-c2ccc3[nH]nc(-c4nc5c(-c6ccsc6)nccc5[nH]4)c3c2)c1)c1ccccc1 ?
result: 7.40

query: Under Wnt activity (Sp5-Luc reporter, SW480 colon carcinoma cells): pIC50 value of CC(C)CC(=O)Nc1cncc(-c2ccc3[nH]nc(-c4nc5c(-c6ccc(F)cc6)nccc5[nH]4)c3c2)c1 ?
result: 8.05

query: Under Wnt activity (Sp5-Luc reporter, SW480 colon carcinoma cells): pIC50 value of CS(=O)(=O)NCc1cc(F)cc(-c2nccc3[nH]c(-c4n[nH]c5ccc(-c6cncc(NC(=O)c7ccccc7)c6)cc45)nc23)c1 ?
result: 7.49

query: Under Wnt activity (Sp5-Luc reporter, SW480 colon carcinoma cells): pIC50 value of Cc1ccc(-c2nccc3[nH]c(-c4n[nH]c5ccc(-c6cncc(NC(=O)C(C)C)c6)cc45)nc23)s1 ?
result: 8.15

query: Under Wnt activity (Sp5-Luc reporter, SW480 colon carcinoma cells): pIC50 value of CCCC(=O)Nc1cncc(-c2ccc3[nH]nc(-c4nc5c(-c6ccsc6)nccc5[nH]4)c3c2)c1 ?
result: 9.00
